Listing: PT of selected molecules
species: Rattus norvegicus; experiment: Open TG-GATES - Regimen: Daily Repeat; format: toxicity, organism-based, Sprague-Dawley; design: regimen Daily Repeat, gender Male, age 6 weeks; conditions: in vivo, po, 0 mg/kg, 72 h, tissue Blood, route gavage, dose level Control, time 3 day
Value expressed in s; do not type the unit.

These solved cases illustrate the format of a correct answer.
# input molecule: O=C(O)c1cccnc1 ; wanted: its PT
15.9

Reported PT, molecule CCSCC[C@H](N)C(=O)O : ____
12

# query: PT of entry CCc1oc2ccccc2c1C(=O)c1cc(I)c(O)c(I)c1
11.7

Next:
Entry Oc1ncnc2[nH]ncc12 has what PT?
11.9

Quick check: PT of C[C@](N)(Cc1ccc(O)c(O)c1)C(=O)O ?
12.6

Entry Nc1nc(N)c2nc(-c3ccccc3)c(N)nc2n1 : reported PT = ?
13.9

// query PT value for entry CC(=O)Oc1cc(C(C)C)c(OCCN(C)C)cc1C
16.5

For the molecule CC(C)(S)[C@@H](N)C(=O)O , what PT is on record?
13.8

Recorded PT for CCN1CCCC1CNC(=O)c1cc(S(N)(=O)=O)ccc1OC (stereo unspecified) [SULPIRIDE] , please?
12.9

Request the reported PT associated with CC(=N)S [THIOACETAMIDE]
11.5

Which PT is listed for C#C[C@]1(O)CC[C@H]2[C@@H]3CCc4cc(O)ccc4[C@H]3CC[C@@]21C ?
12.3

###

species: Rattus norvegicus; test: Open TG-GATES - Regimen: Single; format: toxicity, organism-based, Sprague-Dawley; set-up: regimen Single, gender Male, age 6 weeks; conditions: in vivo, po, 0 mg/kg, 3 h, tissue Plasma, route gavage, dose level Control
quantity-kind: Ca (mg/dL)
Please give a number only; it is taken to be in mg/dL.

Example entries begin here.
Fill in the blank: the reported Ca of Nc1nc(N)c2nc(-c3ccccc3)c(N)nc2n1 is ____.
11

Endpoint output: Ca of CCSCC[C@H](N)C(=O)O . Value?
10.6

Suppose we examine the molecule CCc1oc2ccccc2c1C(=O)c1cc(I)c(O)c(I)c1 ; what Ca value has been reported?
10.8

Item CN1C(=O)OC(C)(C)C1=O has what recorded Ca?
10.6

Switching to the query record.
Would you mind telling me what Ca value was observed for C[C@]12CCC(=O)C=C1CC[C@@H]1[C@@H]2CC[C@@]2(C)[C@H]1CC[C@]2(C)O ?
10.9

###

In this section, each of the compounds is paired with its reported Eos.
organism: Rattus norvegicus; test: Open TG-GATES - Regimen: Daily Repeat; type: toxicity, organism-based, Sprague-Dawley; design: regimen Daily Repeat, gender Male, age 6 weeks; conditions: in vivo, po, 100 mg/kg, […], tissue Blood, route gavage, dose level Low, time 7 day

Below, each entry is followed by its recorded Eos result.
Which Eos value is on record for CC(C)(S)[C@@H](N)C(=O)O [PENICILLAMINE] ?
1%

Query (compound): CCN1CCCC1CNC(=O)c1cc(S(N)(=O)=O)ccc1OC (centres undefined) [SULPIRIDE] ; field requested: Eos
1.2%

GET /values?readout=Eos&item= O=C(O)c1cccnc1 [NIACIN]
1%

Proceed to the following item.
Given O=C(N[C@H](CO)[C@H](O)c1ccc([N+](=O)[O-])cc1)C(Cl)Cl [CHLORAMPHENICOL] , state its recorded Eos.
0.8%

Attribution: ChEMBL document CHEMBL3885861
